Values were extracted from patent US12291516B2.

experiment: Rat pharmacokinetic assay; type: in vivo; conditions: male, Sprague-Dawley, plasma, po 10 mg/kg
reported.metric: half-life (h)
Give bare numbers, in h.

stdin: # lookup: half-life of CC#CC(=O)N1CCCC[C@H]1c1nc(-c2ccc(C(=O)Nc3cc(C(F)(F)F)ccn3)cc2)c(C(N)=O)n1N
stdout: 2.74

* * *

target: UniProtKB P51813; assay: In house ELISA kinase inhibition assay, BMX; type: biochemical; conditions: selectivity for BTK and BMX
Sequence (P51813 whole entry): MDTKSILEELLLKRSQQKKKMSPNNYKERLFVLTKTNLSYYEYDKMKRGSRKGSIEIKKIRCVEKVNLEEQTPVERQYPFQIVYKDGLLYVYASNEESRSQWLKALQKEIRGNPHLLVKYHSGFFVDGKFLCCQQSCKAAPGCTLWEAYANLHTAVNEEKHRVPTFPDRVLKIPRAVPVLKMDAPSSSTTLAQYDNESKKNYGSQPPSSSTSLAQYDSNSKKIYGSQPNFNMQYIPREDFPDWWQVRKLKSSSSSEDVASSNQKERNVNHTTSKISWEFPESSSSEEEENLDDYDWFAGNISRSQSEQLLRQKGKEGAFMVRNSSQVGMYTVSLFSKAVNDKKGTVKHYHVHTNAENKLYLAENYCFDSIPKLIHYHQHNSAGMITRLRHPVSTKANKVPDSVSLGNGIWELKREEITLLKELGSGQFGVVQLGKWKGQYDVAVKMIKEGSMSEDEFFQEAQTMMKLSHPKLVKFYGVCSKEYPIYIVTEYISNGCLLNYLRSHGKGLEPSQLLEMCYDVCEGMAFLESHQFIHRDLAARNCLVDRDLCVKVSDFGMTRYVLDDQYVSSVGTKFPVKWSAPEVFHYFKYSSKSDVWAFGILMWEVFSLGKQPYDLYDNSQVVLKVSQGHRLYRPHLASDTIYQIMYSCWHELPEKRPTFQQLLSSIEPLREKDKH
reported.metric: Selectivity ratio
Numbers only.

// solved cases for Selectivity ratio follow
{"compound": "CC#CC(=O)N1CCCC[C@H]1c1nc(-c2ccc(C(=O)Nc3cc(I)ccn3)cc2)c(C(N)=O)n1N [Example 90]", "experimental.target": "UniProtKB P51813", "Selectivity ratio": 21.2}
{"compound": "C=CC(=O)N1CCCC[C@H]1c1nc(-c2ccc(C(=O)Nc3cc(C(F)(F)F)ccn3)cc2)c(C(N)=O)n1N [Example 84]", "experimental.target": "UniProtKB P51813", "Selectivity ratio": 33.0}
{"compound": "CC#CC(=O)N1CCCC[C@H]1c1nc(-c2ccc(C(=O)Nc3cc(Cl)ccn3)cc2)c(C(N)=O)n1N [Example 98]", "experimental.target": "UniProtKB P51813", "Selectivity ratio": 55.8}
{"compound": "CC#CC(=O)N1CCCC[C@H]1c1nc(-c2ccc(C(=O)Nc3cc(-c4ccc(F)cc4)ccn3)cc2)c(C(N)=O)n1N [Example 92]", "experimental.target": "UniProtKB P51813", "Selectivity ratio": 10.5}

Shifting focus to the compound that follows.
stdin: # lookup: Selectivity ratio of CC#CC(=O)N1CCCC[C@H]1c1nc(-c2ccc(C(=O)Nc3cc(C(F)(F)F)ccn3)cc2)c(C(N)=O)n1N [Example 85]
stdout: 108.2

* * *

molecular target: UniProt Q06187; assay: In house ELISA kinase inhibition assay, BTK; format: biochemical; conditions: footnote b: from in house procedure (ELISA)
Sequence (Q06187 whole entry): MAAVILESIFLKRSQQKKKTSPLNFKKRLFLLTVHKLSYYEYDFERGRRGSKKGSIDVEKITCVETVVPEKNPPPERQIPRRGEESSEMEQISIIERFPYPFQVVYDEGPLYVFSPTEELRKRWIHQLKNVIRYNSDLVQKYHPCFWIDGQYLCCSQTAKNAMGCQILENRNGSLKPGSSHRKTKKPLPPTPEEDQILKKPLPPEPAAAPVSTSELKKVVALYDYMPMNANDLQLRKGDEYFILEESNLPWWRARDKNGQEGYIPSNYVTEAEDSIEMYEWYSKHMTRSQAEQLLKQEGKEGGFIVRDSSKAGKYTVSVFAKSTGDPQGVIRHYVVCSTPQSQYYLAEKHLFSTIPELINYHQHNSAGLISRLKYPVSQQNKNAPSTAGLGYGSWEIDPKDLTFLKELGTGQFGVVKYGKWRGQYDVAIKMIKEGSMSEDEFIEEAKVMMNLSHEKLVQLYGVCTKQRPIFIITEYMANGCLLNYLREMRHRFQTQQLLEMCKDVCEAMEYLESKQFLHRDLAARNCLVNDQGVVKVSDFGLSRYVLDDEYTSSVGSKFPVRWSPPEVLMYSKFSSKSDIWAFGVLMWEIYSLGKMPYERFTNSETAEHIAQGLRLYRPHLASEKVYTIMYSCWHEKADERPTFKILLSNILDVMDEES
reported.metric: IC50 (nM)
One number for each entry, in nM.

{"record.smiles": "Cc1ccnc(NC(=O)c2ccc(-c3nc([C@@H]4CCCCN4C(=O)/C=C/C(F)(F)F)n(N)c3C(N)=O)cc2)c1", "IC50 [nM]": 43.9}
{"record.smiles": "C=CC(=O)N1CCC[C@H]1c1nc(-c2ccc(C(=O)Nc3cc(C(F)(F)F)ccn3)cc2)c(C(N)=O)n1N", "IC50 [nM]": 48}
{"record.smiles": "C=CC(=O)N1CCC[C@H]1c1nc(-c2ccc(C(=O)Nc3cc(CC)ccn3)cc2)c(C(N)=O)n1N", "IC50 [nM]": 33}
{"record.smiles": "C=CC(=O)N1CCCC[C@H]1c1nc(-c2ccc(C(=O)Nc3ccccn3)cc2)c(C(N)=O)n1N", "IC50 [nM]": 13.1}
{"record.smiles": "CC#CC(=O)N1CCC(Cc2nc(-c3ccc(C(=O)Nc4ccccn4)cc3)c(C(N)=O)n2N)CC1", "IC50 [nM]": 459}
{"record.smiles": "C=CC(=O)N1CCC[C@H]1c1nc(-c2ccc(C(=O)Nc3cc(C)ccn3)cc2)c(C(N)=O)n1NC", "IC50 [nM]": 58.2}

# batch size: 6; output IC50 per entry
1. C=CC(=O)N1CCC[C@H]1c1nc(-c2ccc(C(=O)Nc3cc(F)ccn3)cc2)c(C(N)=O)n1N
2. C#CC(=O)N1CCC[C@H]1c1nc(-c2ccc(C(=O)Nc3ccc(C)cn3)cc2)c(C(N)=O)n1N
3. C=C(F)C(=O)N1CCCC[C@H]1c1nc(-c2ccc(C(=O)Nc3cc(OC)ccn3)cc2)c(C(N)=O)n1N
4. CC#CC(=O)N1CCCC[C@H]1c1nc(-c2ccc(C(=O)Nc3cc(C)ccn3)cc2)c(C(N)=O)n1N
5. CC#CC(=O)N1CCCC[C@H]1c1nc(-c2ccc(C(=O)Nc3cccnn3)cc2)c(C(N)=O)n1N
6. C=CC(=O)N1CCCC[C@H]1c1nc(-c2ccc(C(=O)Nc3cc(F)ccn3)cc2)c(C(N)=O)n1N

stdout:
[70.6, 18.4, 2890, 58.1, 2280, 15]

# batch size: 3; output IC50 per entry
1. CC#CC(=O)N1CCCC[C@H]1c1nc(-c2ccc(C(=O)Nc3cc(OC)ccn3)cc2)c(C(N)=O)n1N
2. CC#CC(=O)N1CCCC[C@H]1c1nc(-c2ccc(C(=O)Nc3cc(-c4ccc(Cl)cc4)ccn3)cc2)c(C(N)=O)n1N
3. C=CC(=O)N1CCC[C@H]1c1nc(-c2ccc(C(=O)Nc3cc(OC)ccn3)cc2)c(C(N)=O)n1N

stdout:
1. 79.6
2. 14.8
3. 72.9
